# Tested on: BT-549 breast
# Protocol details: NCI-60 one-dose screen, 48 h (100 = growth as untreated, 0 = no growth, -100 = all killed)
# Conditions used: 10 µM unless noted
This is part of a sample that, as a whole, favours compounds with a hit. Of some 83,000 tested, about 20% had one in any assay.
Measured growth, listed per entry.
Value kind: growth (%)

- Chemical string: "CC1=C(C)C(=O)C(Nc2ccc(C)c(C)c2)=C(Br)C1=O"
  Assay system: "BT-549 breast"
  Measurement: 100
- Chemical string: "COC(=O)CCCNCCCn1ccc2cc(NCc3cccc(-c4ccccc4)c3C)ccc21"
  Assay system: "BT-549 breast"
  Measurement: 90.2
- Chemical string: "COc1cc(NC(=O)Nc2cccc(-c3cc(=O)c4c(OC)c(OC)c(OC)cc4o3)c2)cc(OC)c1OC"
  Assay system: "BT-549 breast"
  Measurement: 31.9
- Chemical string: "CCCc1[nH]c(-c2cc(N)ccc2Cl)c2c1C(=O)CCCC2"
  Assay system: "BT-549 breast"
  Measurement: 111
- Chemical string: "CC(C)=CCC[C@](C)(O)[C@H]1CC[C@]2(C)[C@@H]1CC[C@@H]1[C@@]3(C)CC[C@H](N)C(C)(C)[C@@H]3CC[C@]12C"
  Assay system: "BT-549 breast"
  Measurement: 98.8
- Chemical string: "Brc1cccc(-c2cc(-c3ccc4c(c3)OC=CO4)[nH]n2)c1"
  Assay system: "BT-549 breast"
  Measurement: 63.8
- Chemical string: "COc1cccc(N2CCN(C3=C(Cl)C(=O)c4ncccc4C3=O)CC2)c1"
  Assay system: "BT-549 breast"
  Measurement: 105
- Chemical string: "COc1ccc(C(=O)c2c(N)c(C#N)cn2-c2ccc(Cl)cc2Cl)cc1"
  Assay system: "BT-549 breast"
  Measurement: 111
- Chemical string: "C#CCN(C)CCCOc1ccc(NC(=O)CCCCCCCCC(=O)NO)cc1Cl"
  Assay system: "BT-549 breast"
  Measurement: 92.5
- Chemical string: "C#Cc1nc(C(=O)NCCCCCCC(=O)NO)cs1"
  Assay system: "BT-549 breast"
  Measurement: 50.3
